System: Echinochloa crus-galli (ECHCG)
Assay: Pre-emergence herbicide glasshouse test
Assay type: in vivo
Assay Conditions: 250 g/ha, evaluated after 13 days, five-point scale
percentage damage caused to the plant, ECHCG: recorded values

These recorded examples may help you get a feel for the data.
                                   compound  value_observed
0  CON=CCc1nc(C(F)(F)F)nc2cccc(Oc3ncc(Cl)cn3)c12 [Compound 1.007]     1 (1=0-20%)
1  FC(F)(F)c1nc(CCC=NOCC2CC2)c2c(Oc3ncc(Cl)cn3)cccc2n1 [Compound 1.068]    3 (3=41-60%)
2  O=C(c1ccc(Cl)cn1)c1nc(C(F)(F)F)nc2cccc(Oc3ncc(Cl)cn3)c12 [Compound 1.070]     1 (1=0-20%)
3  FC(F)(F)c1nc(CCC2CCOCC2)c2c(Oc3ncc(Cl)cn3)cccc2n1 [Compound 1.044]   5 (5=81-100%)
4  Fc1ccc(-c2nc(C(F)(F)F)nc3cccc(Oc4ncc(Cl)cc4F)c23)cc1 [Compound 1.040]     1 (1=0-20%)
5  FC(F)(F)c1ncc(-c2nc(C(F)(F)F)nc3cccc(Oc4ncc(Cl)cn4)c23)cn1 [Compound 1.013]     1 (1=0-20%)
6  CO/N=C/CCc1nc(C(F)(F)F)nc2cccc(Oc3ncc(Cl)cn3)c12 [Compound 1.025]   5 (5=81-100%)
7  FC(F)(F)c1nc(CCC2CC2)c2c(Oc3ncc(Cl)cn3)cccc2n1 [Compound 1.032]   5 (5=81-100%)
8  CC(Br)c1nc(C(F)(F)F)nc2cccc(Oc3ncc(Cl)cn3)c12 (centres unmarked) [Compound 1.001]     1 (1=0-20%)
9  O=C(c1ccc(F)cn1)c1nc(C(F)(F)F)nc2cccc(Oc3ncc(Cl)cn3)c12 [Compound 1.027]     1 (1=0-20%)

Attention now shifts to the item below.
So what percentage damage caused to the plant, ECHCG did COCCCc1nc(C(F)(F)F)nc2cccc(Oc3ncc(Cl)cn3)c12 [Compound 1.024] get with Echinochloa crus-galli (ECHCG)?
5 (5=81-100%)

###

Tested on: Setaria faberi (SETFA)
Assay: Post-emergence herbicide glasshouse test
Type: in vivo
Assay Conditions: 250 g/ha, evaluated after 13 days, five-point scale
Endpoint: percentage damage caused to the plant, SETFA

See these solved cases before continuing.
>>> print(df.to_string())
                                   compound           system_tested  value_observed
0  ON=CCCc1nc(C(F)(F)F)nc2cccc(Oc3ncc(Cl)cn3)c12  Setaria faberi (SETFA)    2 (2=21-40%)
1  CO/N=C\CCc1nc(C(F)(F)F)nc2cccc(Oc3ncc(Cl)cn3)c12  Setaria faberi (SETFA)    4 (4=61-80%)
2  CCON=CCc1nc(C(F)(F)F)nc2cccc(Oc3ncc(Cl)cn3)c12  Setaria faberi (SETFA)     1 (1=0-20%)
3  FC(F)(F)c1nc(C2CC2)c2c(Oc3ncc(Cl)cn3)cccc2n1  Setaria faberi (SETFA)   5 (5=81-100%)
4  O=C(c1ccccn1)c1nc(C(F)(F)F)nc2cccc(Oc3ncc(Cl)cn3)c12  Setaria faberi (SETFA)     1 (1=0-20%)

Query the reported percentage damage caused to the plant, SETFA for Setaria faberi (SETFA); item: CCO/N=C\CCc1nc(C(F)(F)F)nc2cccc(Oc3ncc(Cl)cn3)c12
5 (5=81-100%)

GET /values?readout=percentage damage caused to the plant, SETFA&system=Setaria faberi (SETFA)&item= CN(C)/C=C/c1nc(C(F)(F)F)nc2cccc(Oc3ncc(Cl)cn3)c12
1 (1=0-20%)

// fetch Setaria faberi (SETFA) percentage damage caused to the plant, SETFA for CON=C(C)c1nc(C(F)(F)F)nc2cccc(Oc3ncc(Cl)cn3)c12
1 (1=0-20%)

Request: percentage damage caused to the plant, SETFA, test system Setaria faberi (SETFA), entry CCO/N=C/CCc1nc(C(F)(F)F)nc2cccc(Oc3ncc(Cl)cn3)c12
5 (5=81-100%)

###

Test system: Amaranthus palmeri (AMAPA)
Assay: Pre-emergence herbicide glasshouse test
Format: in vivo
Assay Conditions: 250 g/ha, evaluated after 13 days, five-point scale
Endpoint: percentage damage caused to the plant, AMAPA

Known results for molecules:
In [3]: df
Out[3]:
                                   molecule  value_observed
0  FC(F)(F)c1ncc(-c2nc(C(F)(F)F)nc3cccc(Oc4ncc(Cl)cn4)c23)cn1     1 (1=0-20%)
1  CN(C)/C=C/c1nc(C(F)(F)F)nc2cccc(Oc3ncc(Cl)cn3)c12    2 (2=21-40%)
2  CC(=NOCC1CC1)c1nc(C(F)(F)F)nc2cccc(Oc3ncc(Cl)cn3)c12 [Compound 1.065]     1 (1=0-20%)

# next molecule below
Hello, I am looking for reported percentage damage caused to the plant, AMAPA with Amaranthus palmeri (AMAPA) for Cn1nc(-c2nc(C(F)(F)F)nc3cccc(Oc4ncc(Cl)cn4)c23)cc1C(F)F . Could you help?
2 (2=21-40%)

###

Tested on: Amaranthus retoflexus (AMARE)
Assay: Pre-emergence herbicide glasshouse test
Format: in vivo
Assay Conditions: 250 g/ha, evaluated after 13 days, five-point scale
Endpoint: percentage damage caused to the plant, AMARE

Answered examples (2):
>>> print(df.to_string())
                                   compound  value_observed
0  CC(=NOCC1CC1)c1nc(C(F)(F)F)nc2cccc(Oc3ncc(Cl)cn3)c12 [Compound 1.065]     1 (1=0-20%)
1  O=C(c1cccnc1)c1nc(C(F)(F)F)nc2cccc(Oc3ncc(Cl)cn3)c12   5 (5=81-100%)

Consider the compound CC(=O)c1nc(C(F)(F)F)nc2cccc(Oc3ncc(Cl)cn3)c12 and give its measured percentage damage caused to the plant, AMARE.
5 (5=81-100%)

So what's the measured percentage damage caused to the plant, AMARE for this one? FC(F)(F)c1nc(CCC2CCOCC2)c2c(Oc3ncc(Cl)cn3)cccc2n1
5 (5=81-100%)

Name the reported percentage damage caused to the plant, AMARE value associated with the compound Fc1cnc(Oc2cccc3nc(C(F)(F)F)nc(CCC4CC4)c23)nc1
5 (5=81-100%)

###

The following molecules are listed with their measured percentage damage caused to the plant, SETFA values.
Tested on: Setaria faberi (SETFA)
Assay: Post-emergence herbicide glasshouse test
Type: in vivo
Assay Conditions: 250 g/ha, evaluated after 13 days, five-point scale

In [3]: df
Out[3]:
                                   molecule  value_observed
0  Fc1ccc(-c2nc(C(F)(F)F)nc3cccc(Oc4ncc(Cl)cn4)c23)cc1     1 (1=0-20%)

For the molecule CCNC(=O)CCc1nc(C(F)(F)F)nc2cccc(Oc3ncc(Cl)cn3)c12 , what percentage damage caused to the plant, SETFA is on record?
1 (1=0-20%)

Could you share which percentage damage caused to the plant, SETFA value was measured for Fc1ccc(-c2nc(C(F)(F)F)nc3cccc(Oc4ncc(Cl)cc4F)c23)cc1 ?
1 (1=0-20%)

###

Tested on: Echinochloa crus-galli (ECHCG)
Assay: Pre-emergence herbicide glasshouse test
Format: in vivo
Assay Conditions: 250 g/ha, evaluated after 13 days, five-point scale
Each entry below carries its reported percentage damage caused to the plant, ECHCG.

Look over these answered cases.
>>> print(df.to_string())
                        structure_as_smiles                   system_tested  value_observed
0  CON=C(C)c1nc(C(F)(F)F)nc2cccc(Oc3ncc(Cl)cn3)c12  Echinochloa crus-galli (ECHCG)     1 (1=0-20%)
1  FC(F)(F)c1nc(CCC2CC2)c2c(Oc3ncc(Cl)cn3)ccc(Br)c2n1  Echinochloa crus-galli (ECHCG)     1 (1=0-20%)
2  CON1CCC(CCc2nc(C(F)(F)F)nc3cccc(Oc4ncc(Cl)cn4)c23)CC1  Echinochloa crus-galli (ECHCG)    2 (2=21-40%)

Could you share which percentage damage caused to the plant, ECHCG value was measured for CCO/N=C\CCc1nc(C(F)(F)F)nc2cccc(Oc3ncc(Cl)cn3)c12 ?
5 (5=81-100%)

###

Tested on: Ipomoea hederacea (IPOHE)
Assay: Pre-emergence herbicide glasshouse test
Format: in vivo
Assay Conditions: 250 g/ha, evaluated after 13 days, five-point scale
Endpoint: percentage damage caused to the plant, IPOHE

>>> print(df.to_string())
                                   compound  value_observed
0  CON=CCc1nc(C(F)(F)F)nc2cccc(Oc3ncc(Cl)cn3)c12     1 (1=0-20%)
1  Fc1ccc(-c2nc(C(F)(F)F)nc3cccc(Oc4ncc(Cl)cc4F)c23)cc1     1 (1=0-20%)
2  CO/N=C\CCc1nc(C(F)(F)F)nc2cccc(Oc3ncc(Cl)cn3)c12    4 (4=61-80%)
3  O=C(c1ccc(Cl)cn1)c1nc(C(F)(F)F)nc2cccc(Oc3ncc(Cl)cn3)c12     1 (1=0-20%)
4  COCCCc1nc(C(F)(F)F)nc2cccc(Oc3ncc(Cl)cn3)c12   5 (5=81-100%)

Query (compound): N#CCCc1nc(C(F)(F)F)nc2cccc(Oc3ncc(Cl)cn3)c12 ; field requested: percentage damage caused to the plant, IPOHE
5 (5=81-100%)

Which percentage damage caused to the plant, IPOHE is reported for this compound? O=C(c1ccc(Br)cn1)c1nc(C(F)(F)F)nc2cccc(Oc3ncc(Cl)cn3)c12
1 (1=0-20%)

Please look up its percentage damage caused to the plant, IPOHE: CC(=NOCC1CC1)c1nc(C(F)(F)F)nc2cccc(Oc3ncc(Cl)cn3)c12 [Compound 1.065]
1 (1=0-20%)

Suppose we examine the compound FC(F)(F)c1nc(CCCC2CC2)c2c(Oc3ncc(Cl)cn3)cccc2n1 ; what percentage damage caused to the plant, IPOHE value has been reported?
1 (1=0-20%)

Given CCO/N=C\CCc1nc(C(F)(F)F)nc2cccc(Oc3ncc(Cl)cn3)c12 , state its recorded percentage damage caused to the plant, IPOHE.
2 (2=21-40%)

So what's the measured percentage damage caused to the plant, IPOHE for this one? O=C(c1cccnc1)c1nc(C(F)(F)F)nc2cccc(Oc3ncc(Cl)cn3)c12
1 (1=0-20%)

Look at this compound and give its reported percentage damage caused to the plant, IPOHE. Cc1ccc(Oc2ncc(Cl)cn2)c2c(CCC3CC3)nc(C(F)(F)F)nc12
1 (1=0-20%)

What does the data say about its percentage damage caused to the plant, IPOHE? Entry: O=CCCc1nc(C(F)(F)F)nc2cccc(Oc3ncc(Cl)cn3)c12
1 (1=0-20%)
